tested on: T-47D breast; assay: NCI tumour cell line growth inhibition, 48 h
reported metric: GI50

# return recorded GI50 for entry `CCCCCCNC(=O)Oc1ccc(/C(=C(\C)c2ccccc2)c2ccc(OCCN3CCCCC3)cc2)cc1` 1140 nM

# return recorded GI50 for entry `COc1cc2nc(-c3ccc(-n4cncc4-c4ccc(N)cc4)cc3)sc2c(OC)c1OC` 1590 nM

# return recorded GI50 for entry CCCCCCCCCCCCOC1C(C(COC2OC(C(O)CN3CCCCC3)C3OC(C)(C)OC23)NC(=O)Nc2ccccc2)OC2OC(C)(C)OC21 (stereo not drawn) 14500 nM

###

Assignment: determine reported TGI for the given compounds.
system: RPMI-8226 leukemia; test: NCI tumour cell line growth inhibition, 48 h

# return recorded TGI for entry `O=C(NCCCNC(=O)OCc1ccc2c(Br)cc(Br)c(O)c2n1)OCc1ccc2c(Br)cc(Br)c(O)c2n1` > 100 µM

# return recorded TGI for entry CS(=O)c1ccc(-c2nc(-c3ccc(F)cc3)c(-c3ccncc3)[nH]2)cc1 (configuration not stated) 83.6 µM

# return recorded TGI for entry Cc1ccc(C2SCc3nc4ccc(C(=O)c5ccccc5)cc4n32)cc1 (configuration not stated) > 95 µM

# return recorded TGI for entry CC(=O)OCC(OC(C)=O)C(OC(C)=O)C(OC(C)=O)C(=O)CNn1c(-c2ccccc2)nc2ccc(Br)cc2c1=O (configuration not stated) > 100 µM

# return recorded TGI for entry `CN(C)c1nc(N(C)C)n2nc(-c3ccccc3[N+](=O)[O-])nc2n1` > 100 µM

# return recorded TGI for entry `CCn1c(-c2nonc2N)nc2c(C#CC(C)(C)O)nc(O[C@@H](CN)c3ccccc3)cc21` 2.7 µM

# return recorded TGI for entry COc1ccc(C2CC(=O)Oc3ccccc3O2)cc1 (configuration not stated) > 100 µM

# return recorded TGI for entry Fc1ccc(F)c(C2SCc3nc4ccccc4n32)c1 (configuration not stated) > 100 µM

# return recorded TGI for entry `Nc1nc(Cl)cc(NCC2(CO)CCC2)n1` > 100 µM

# return recorded TGI for entry `O=c1oc2cc(O)ccc2c(O)c1C(c1ccccn1)c1c(O)c2ccc(O)cc2oc1=O` > 100 µM

# return recorded TGI for entry COC1(OC)CC2C(=O)N(Cc3ccccc3)C1CC2S(=O)(=O)c1ccccc1 (configuration not stated) > 100 µM

# return recorded TGI for entry O=C1c2ccccc2C(=O)c2c(NCCNC(=O)C3CCCN3)ccc(NCCNC(=O)C3CCCN3)c21 (configuration not stated) 58.8 µM

###

test system: SK-MEL-5 melanoma; test: NCI tumour cell line growth inhibition, 48 h
Assignment: determine reported TGI for the given compounds.
State the answer as a number, implicitly in µM.

# return recorded TGI for entry CCCCN(CCCC)CC(C)(C)C(O)c1ccc(OC)c2ccccc12 (stereo not drawn) 4.95

# return recorded TGI for entry Cc1cc(=O)[nH]c(NN2C(Cl)C(=O)C2c2cccc([N+](=O)[O-])c2)n1 (stereo not drawn) 33.5

# return recorded TGI for entry `CC(F)(F)c1cc(F)ccc1-c1sc2cc(O)ccc2c1Oc1ccc(/C=C/C(=O)O)cc1` 15.3

# return recorded TGI for entry Cc1ccc(C2SCc3nc4ccc(C(=O)c5ccccc5)cc4n32)cc1 (stereo not drawn) 7.48

###

system: HS 578T breast; experiment: NCI tumour cell line growth inhibition, 48 h
Assignment: determine reported TGI for the given molecules.

# return recorded TGI for entry `COc1cccc2c1cc([N+](=O)[O-])c1c(C(=O)O)cc3c(c12)OCO3` > 100 µM

# return recorded TGI for entry `COc1ccc(CNc2nc(NCc3ccc(OC)cc3)nc(NC(C)C)n2)cc1` > 100 µM

# return recorded TGI for entry `Nc1nc(Cl)cc(NCC2(CO)CCC2)n1` > 100 µM

# return recorded TGI for entry `O=c1oc2ccccc2cc1-c1nnc(-c2ccccc2)s1` > 100 µM

# return recorded TGI for entry `Cc1cc(S(=O)(=O)Nc2nc(N)nc(N3CCOCC3)n2)c(SCC(=O)O)cc1Cl` > 10 µM

# return recorded TGI for entry `CC1(C)OC(=O)C(C)(C)OC1=O` > 100 µM

# return recorded TGI for entry `O=C1/C(=C/c2ccc(Cl)cc2)NC(=S)N1CN1CCOCC1` > 100 µM

# return recorded TGI for entry `N#CC1=C(C#N)/C(=C(\C#N)C(C#N)C#N)N=C1N` > 100 µM

# return recorded TGI for entry `COC(C/C(=C/CO[Si](C(C)C)(C(C)C)C(C)C)C(=O)Nc1ccccc1I)OC` > 100 µM

# return recorded TGI for entry C[C@@H]1C[C@@H](O)[C@@]2(O)C13CC(=O)OC(C3)[C@@H](C)[C@@]2(C)CO (some centres not stated) > 100 µM

# return recorded TGI for entry CC1(C)[C@@H]2C[C@H]1C(Cc1ccc(C[C@H]3c4cc(-c5ccccn5)ncc4[C@H]4C[C@@H]3C4(C)C)cc1)c1cc(-c3ccccn3)ncc12 (some centres not stated) > 100 µM

# return recorded TGI for entry `c1ccc2c[n+](CCCCCCCCCC[n+]3ccc4ccccc4c3)ccc2c1` > 10 µM
